These entries and their values trace back to the NIST ThermoML archive (doi:10.1016/j.fluid.2012.10.015).

Reported refractive index values for the following molecules.
- MEASUREMENT DESCRIPTION: refractive index (Na D-line) (dimensionless)
- STUDY CONDITIONS: 298.15 K; 101.33 kPa; Liquid; Standard Abbe refractometry
Respond using a number only.

Answered cases to consult:
[
  {
    "MOLECULE": "C[N+](=O)[O-] [nitromethane]",
    "QUANTITY": "refractive index",
    "VALUE REPORTED": 1.37956
  },
  {
    "MOLECULE": "CCCCCl [1-chlorobutane]",
    "QUANTITY": "refractive index",
    "VALUE REPORTED": 1.39953
  },
  {
    "MOLECULE": "CC[N+](=O)[O-] [nitroethane]",
    "QUANTITY": "refractive index",
    "VALUE REPORTED": 1.38951
  }
]

Request: Which measured refractive index value corresponds to CCCCCCl [1-chloropentane] ?
Result: 1.41015

---

- STUDY CONDITIONS: 298.15 K; 101.33 kPa; Liquid; Vibrating tube method
Reported mass density values for the following molecules.
# output: bare number, implied unit kg/m3

[
  {
    "MOLECULE": "CCCCCl [1-chlorobutane]",
    "SCALE UNIT": "kg/m3",
    "VALUE REPORTED": 881.172
  }
]

Request: Which measured mass density value corresponds to C[N+](=O)[O-] [nitromethane] ?
Result: 1130.87

Request: Which measured mass density value corresponds to CC[N+](=O)[O-] [nitroethane] ?
Result: 1044.21

Request: Which measured mass density value corresponds to CCCCCCl [1-chloropentane] ?
Result: 877.089

---

Reported vapor or sublimation pressure values for the following compounds.
- STUDY CONDITIONS: 298.15 K; Liquid; Closed cell (Static) method
# output: bare number, implied unit kPa

Answered cases to consult:
[
  {
    "COMPOUND": "CCCCCl [1-chlorobutane]",
    "VALUE REPORTED": 13.72
  },
  {
    "COMPOUND": "CC[N+](=O)[O-] [nitroethane]",
    "VALUE REPORTED": 2.95
  },
  {
    "COMPOUND": "CCCCCCl [1-chloropentane]",
    "VALUE REPORTED": 4.24
  }
]

Request: Which measured vapor or sublimation pressure value corresponds to C[N+](=O)[O-] [nitromethane] ?
Result: 4.83

---

- STUDY CONDITIONS: 318.15 K; Liquid; Closed cell (Static) method
Reported vapor or sublimation pressure values for the following compounds.
# output: bare number, implied unit kPa

Answered cases to consult:
[
  {
    "COMPOUND": "C[N+](=O)[O-]",
    "VALUE REPORTED": 12.57
  },
  {
    "COMPOUND": "CCCCCl",
    "VALUE REPORTED": 31.46
  },
  {
    "COMPOUND": "CC[N+](=O)[O-]",
    "VALUE REPORTED": 7.24
  }
]

// switching to the query compound
Request: Which measured vapor or sublimation pressure value corresponds to `CCCCCCl` ?
Result: 10.91

---

Reported vapor or sublimation pressure values for the following molecules.
- STUDY CONDITIONS: 308.15 K; Liquid; Closed cell (Static) method
# output: bare number, implied unit kPa

Request: Which measured vapor or sublimation pressure value corresponds to CC[N+](=O)[O-] [nitroethane] ?
Result: 4.69

Request: Which measured vapor or sublimation pressure value corresponds to CCCCCCl [1-chloropentane] ?
Result: 7.09

Request: Which measured vapor or sublimation pressure value corresponds to C[N+](=O)[O-] [nitromethane] ?
Result: 7.5

Request: Which measured vapor or sublimation pressure value corresponds to CCCCCl [1-chlorobutane] ?
Result: 20.66
